# Test system: Enterococcus faecalis
# PROCEDURE_SUMMARY: Bactericidal activity against vancomycin and teicoplanin-sensitive Enterococcus faecalis ATCC 29212 after overnight incubation
# Format: functional

MOLECULE	MBC, µg/mL
COC(=O)[C@@H]1NC(=O)[C@H]2NC(=O)[C@H](NC(=O)[C@@H]3NC(=O)[C@H]4NC(=O)[C@@H](Cc5ccc(c(Cl)c5)Oc5cc3cc(c5O)Oc3ccc(cc3Cl)[C@H]2O)NC(=O)[C@H](N=[N+]=[N-])c2ccc(O)c(c2)Oc2cc(O)cc4c2)c2ccc(O)c(c2)-c2c(O)cc(O)cc21	256
COC(=O)[C@@H]1NC(=O)[C@H]2NC(=O)[C@H](NC(=O)[C@@H]3NC(=O)[C@H]4NC(=O)[C@@H](Cc5ccc(c(Cl)c5)Oc5cc3cc(c5O)Oc3ccc(cc3Cl)[C@H]2O[C@@H]2O[C@H](CO)[C@@H](O)[C@H](O)[C@H]2NC(C)=O)NC(=O)[C@H](N=[N+]=[N-])c2ccc(O)c(c2)Oc2cc(O)cc4c2)c2ccc(O)c(c2)-c2c(O)cc(O)cc21	256
COC(=O)[C@H]1NC(=O)[C@H]2NC(=O)[C@H](NC(=O)[C@@H]3NC(=O)[C@H]4NC(=O)[C@H](NC(=O)[C@H](N=[N+]=[N-])c5ccc(O)c(c5)Oc5cc4cc(O)c5C)[C@H](O)c4ccc(cc4)Oc4cc3cc(c4O)Oc3ccc(cc3)[C@H]2O)c2ccc(O)c(c2)-c2c(O)cc(O)cc21	8
